- system_name: T1, recombinant human 4R0N tau (human, UniProt P10636 2-758)
- T1 construct: also called recombinant 4R0N human tau; P10636-6
- measurement_notes: SPR Biacore T200; antibody captured by anti-human Fc; tau as analyte; global 1:1 fit

binder	Kd
hu9F5VHv10/hu9F5VLv9_DIM4 (antibody, V domains shown) VH: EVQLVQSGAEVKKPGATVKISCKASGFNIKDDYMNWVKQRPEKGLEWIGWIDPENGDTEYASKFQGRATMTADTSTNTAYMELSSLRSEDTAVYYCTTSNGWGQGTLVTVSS VL: DIQMTQSPFSLPVTPGESASISCRSSKSLSHSNGITYLYWYQQKPGQSPQLLIYQGSNRASGVPDRFSSSGSGTDFTLKISRVEAEDVGVYYCAQNGELPLTFGQGTKLEIK	1.74 nM
hu9F5VHv9/hu9F5VLv8_DIM24 (antibody, V domains shown) VH: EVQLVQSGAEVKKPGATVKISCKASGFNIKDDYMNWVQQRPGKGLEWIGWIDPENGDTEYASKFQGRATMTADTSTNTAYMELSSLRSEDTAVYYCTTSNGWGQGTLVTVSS VL: DIQMTQSPFSLPVTPGESASISCRSSKSLGHSNGITYLYWYIQKPGQSPQLLIYQESNRASGVPNRFSSSGSGTDFTLKISRVEAEDVGVYYCAQNIELPLTFGQGTKLEIK	0.454 nM
hu9F5VHv9/hu9F5VLv8 (antibody, V domains shown) VH: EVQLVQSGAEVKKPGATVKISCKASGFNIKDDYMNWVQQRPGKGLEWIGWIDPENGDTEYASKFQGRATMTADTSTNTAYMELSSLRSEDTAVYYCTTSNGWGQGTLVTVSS VL: DIVMTQSPFSLPVTPGESASISCRSSKSLLHSNGITYLYWYLQKPGQSPQLLIYQMSNLASGVPNRFSSSGSGTDFTLKISRVEAEDVGVYYCAQNLELPLTFGQGTKLEIK	0.269 nM
hu9F5VHv9/hu9F5VLv8_DIM4 (antibody, V domains shown) VH: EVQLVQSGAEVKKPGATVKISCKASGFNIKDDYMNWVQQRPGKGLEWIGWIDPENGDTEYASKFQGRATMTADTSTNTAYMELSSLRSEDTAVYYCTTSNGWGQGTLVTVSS VL: DIQMTQSPFSLPVTPGESASISCRSSKSLSHSNGITYLYWYQQKPGQSPQLLIYQGSNRASGVPNRFSSSGSGTDFTLKISRVEAEDVGVYYCAQNGELPLTFGQGTKLEIK	2.63 nM
hu9F5VHv9/hu9F5VLv8_DIM12 (antibody, V domains shown) VH: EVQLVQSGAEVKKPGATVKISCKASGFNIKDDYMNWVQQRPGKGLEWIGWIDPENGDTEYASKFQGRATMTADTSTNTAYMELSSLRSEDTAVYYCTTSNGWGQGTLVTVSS VL: DIQMTQSPFSLPVTPGESASISCRSSKSLGHSNGITYLYWYGQKPGQSPQLLIYQGSNRASGVPNRFSSSGSGTDFTLKISRVEAEDVGVYYCAQNGELPLTFGQGTKLEIK	0.221 nM
